Recorded measurements of normalized RNA/DNA level with ligand (log10), one per entry
B1: library; a variant is named by its letters at N, in order (parent)
chain: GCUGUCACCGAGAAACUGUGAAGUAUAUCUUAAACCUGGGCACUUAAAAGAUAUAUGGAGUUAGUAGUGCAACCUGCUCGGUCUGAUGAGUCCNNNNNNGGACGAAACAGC

Variants of: B1
Test: normalized RNA/DNA level with ligand (relative to sTRSVctl = 100) (log10 (% of sTRSVctl)); HEK293T; ligand: cyclic di-GMP (c-di-GMP-II aptamer); ligand concentration (+) RNA-Seq: 1 mM; higher = less ribozyme self-cleavage, higher mRNA level
Details: reporter: mCherry (pCS4076), ligand present: yes
Measurement Type: normalized RNA/DNA level with ligand (log10)

>>> print(df.to_string())
                             sequence_record   val
 0  GCUGUCACCGAGAAACUGUGAAGUAUAUCUUAAACCUGGGCACUUAAAAGAUAUAUGGAGUUAGUAGUGCAACCUGCUCGGUCUGAUGAGUCCAUUUCAGGACGAAACAGC [AUUUCA]  1.85
 1  GCUGUCACCGAGAAACUGUGAAGUAUAUCUUAAACCUGGGCACUUAAAAGAUAUAUGGAGUUAGUAGUGCAACCUGCUCGGUCUGAUGAGUCCUAGUGCGGACGAAACAGC [UAGUGC]  1.82
 2  GCUGUCACCGAGAAACUGUGAAGUAUAUCUUAAACCUGGGCACUUAAAAGAUAUAUGGAGUUAGUAGUGCAACCUGCUCGGUCUGAUGAGUCCAGUUGCGGACGAAACAGC [AGUUGC]  1.82
 3  GCUGUCACCGAGAAACUGUGAAGUAUAUCUUAAACCUGGGCACUUAAAAGAUAUAUGGAGUUAGUAGUGCAACCUGCUCGGUCUGAUGAGUCCGUGGUCGGACGAAACAGC [GUGGUC]  1.46
 4  GCUGUCACCGAGAAACUGUGAAGUAUAUCUUAAACCUGGGCACUUAAAAGAUAUAUGGAGUUAGUAGUGCAACCUGCUCGGUCUGAUGAGUCCUGGUAAGGACGAAACAGC [UGGUAA]  1.79
 5  GCUGUCACCGAGAAACUGUGAAGUAUAUCUUAAACCUGGGCACUUAAAAGAUAUAUGGAGUUAGUAGUGCAACCUGCUCGGUCUGAUGAGUCCGGCUCCGGACGAAACAGC [GGCUCC]  1.96
 6  GCUGUCACCGAGAAACUGUGAAGUAUAUCUUAAACCUGGGCACUUAAAAGAUAUAUGGAGUUAGUAGUGCAACCUGCUCGGUCUGAUGAGUCCACGCGUGGACGAAACAGC [ACGCGU]  1.71
 7  GCUGUCACCGAGAAACUGUGAAGUAUAUCUUAAACCUGGGCACUUAAAAGAUAUAUGGAGUUAGUAGUGCAACCUGCUCGGUCUGAUGAGUCCGCUGAUGGACGAAACAGC [GCUGAU]  1.72
 8  GCUGUCACCGAGAAACUGUGAAGUAUAUCUUAAACCUGGGCACUUAAAAGAUAUAUGGAGUUAGUAGUGCAACCUGCUCGGUCUGAUGAGUCCGCACCAGGACGAAACAGC [GCACCA]  1.75
 9  GCUGUCACCGAGAAACUGUGAAGUAUAUCUUAAACCUGGGCACUUAAAAGAUAUAUGGAGUUAGUAGUGCAACCUGCUCGGUCUGAUGAGUCCCACACUGGACGAAACAGC [CACACU]   1.7
10  GCUGUCACCGAGAAACUGUGAAGUAUAUCUUAAACCUGGGCACUUAAAAGAUAUAUGGAGUUAGUAGUGCAACCUGCUCGGUCUGAUGAGUCCUUGAAAGGACGAAACAGC [UUGAAA]  1.76
11  GCUGUCACCGAGAAACUGUGAAGUAUAUCUUAAACCUGGGCACUUAAAAGAUAUAUGGAGUUAGUAGUGCAACCUGCUCGGUCUGAUGAGUCCAGAUAGGGACGAAACAGC [AGAUAG]  1.71
12  GCUGUCACCGAGAAACUGUGAAGUAUAUCUUAAACCUGGGCACUUAAAAGAUAUAUGGAGUUAGUAGUGCAACCUGCUCGGUCUGAUGAGUCCGUCCCAGGACGAAACAGC [GUCCCA]  1.87
13  GCUGUCACCGAGAAACUGUGAAGUAUAUCUUAAACCUGGGCACUUAAAAGAUAUAUGGAGUUAGUAGUGCAACCUGCUCGGUCUGAUGAGUCCUUCGGUGGACGAAACAGC [UUCGGU]  1.87
14  GCUGUCACCGAGAAACUGUGAAGUAUAUCUUAAACCUGGGCACUUAAAAGAUAUAUGGAGUUAGUAGUGCAACCUGCUCGGUCUGAUGAGUCCCCUGCAGGACGAAACAGC [CCUGCA]  1.84
15  GCUGUCACCGAGAAACUGUGAAGUAUAUCUUAAACCUGGGCACUUAAAAGAUAUAUGGAGUUAGUAGUGCAACCUGCUCGGUCUGAUGAGUCCUAGUACGGACGAAACAGC [UAGUAC]   1.8
16  GCUGUCACCGAGAAACUGUGAAGUAUAUCUUAAACCUGGGCACUUAAAAGAUAUAUGGAGUUAGUAGUGCAACCUGCUCGGUCUGAUGAGUCCAGGUUGGGACGAAACAGC [AGGUUG]  1.77
17  GCUGUCACCGAGAAACUGUGAAGUAUAUCUUAAACCUGGGCACUUAAAAGAUAUAUGGAGUUAGUAGUGCAACCUGCUCGGUCUGAUGAGUCCUGGAACGGACGAAACAGC [UGGAAC]  1.83

Data provenance: the supplement of paper PMC6757056
